From: patent US11236055B2

Listed here: items and their measured EC50.
# Measurement target: mouse TGR5 receptor (Mus musculus)
# Construct: expressed in transfected cells; host or cells: HEK293-EBNA (293 c18, ATCC CRL10852), Hygromycin B selection
# Sequence (Q80SS6 1-329): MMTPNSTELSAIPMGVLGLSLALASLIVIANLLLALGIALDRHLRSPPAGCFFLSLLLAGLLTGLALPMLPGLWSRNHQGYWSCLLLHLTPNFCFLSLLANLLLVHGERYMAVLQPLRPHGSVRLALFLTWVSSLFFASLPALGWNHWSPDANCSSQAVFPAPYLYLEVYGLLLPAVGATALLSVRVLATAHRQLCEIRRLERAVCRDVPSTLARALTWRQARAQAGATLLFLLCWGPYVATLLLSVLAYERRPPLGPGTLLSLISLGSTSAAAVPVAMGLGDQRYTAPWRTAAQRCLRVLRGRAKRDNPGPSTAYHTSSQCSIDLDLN
# Protocol text: Mouse TGR5 cAMP production assay (HTRF, Cisbio cAMP HiRange)
# Format: cell-based
# Applied conditions: HEK293-EBNA cells overexpressing mouse TGR5, HTRF cAMP HiRange; coded A-D

>  <Compound>
COC(=O)CS(=O)(=O)NCCOCCNC(=O)CCCCN([C@@H](C)c1cccc(-c2ccncc2C)c1)S(=O)(=O)c1cccc(Cl)c1C [Compound 26AC]

>  <EC50>
100 to 999 nM

$$$$
>  <Compound>
Cc1cnccc1-c1cccc([C@H](CCCC(=O)NCS(=O)(=O)O)NS(=O)(=O)c2ccccc2C(F)(F)F)c1 [Compound 20BR]

>  <EC50>
100 to 999 nM

$$$$
>  <Compound>
Cc1cnccc1-c1cccc(C(NS(=O)(=O)c2ccccc2C(F)(F)F)C2CC2)c1 (racemic)

>  <EC50>
100 to 999 nM

$$$$
>  <Compound>
COc1cnccc1-c1cccc(C(C)(C)NS(=O)(=O)c2ccc(C(F)(F)F)cc2[N+](=O)[O-])c1

>  <EC50>
1000 to 30000 nM

$$$$
>  <Compound>
CCc1cnccc1-c1cccc([C@H](C)N(CCCC(=O)NCCS(=O)(=O)O)S(=O)(=O)c2ccccc2C(F)(F)F)c1 [Compound 20BF]

>  <EC50>
< 100 nM

$$$$
>  <Compound>
Cc1cnccc1-c1cccc([C@H](C)N(CCCC(=O)NCCNS(=O)(=O)NCC(=O)O)S(=O)(=O)c2cccc(Cl)c2C)c1

>  <EC50>
< 100 nM

$$$$
>  <Compound>
Cc1cnccc1-c1cccc([C@H](C)N(CCCCC(=O)NCCS(=O)(=O)NCC(=O)O)S(=O)(=O)c2ccccc2C(F)(F)F)c1 [Compound 20BL]

>  <EC50>
< 100 nM

$$$$
